# Target entity: His-Tagged hOGA (human O-GlcNAcase) (Homo sapiens (Human))
# Sequence (O60502 whole entry): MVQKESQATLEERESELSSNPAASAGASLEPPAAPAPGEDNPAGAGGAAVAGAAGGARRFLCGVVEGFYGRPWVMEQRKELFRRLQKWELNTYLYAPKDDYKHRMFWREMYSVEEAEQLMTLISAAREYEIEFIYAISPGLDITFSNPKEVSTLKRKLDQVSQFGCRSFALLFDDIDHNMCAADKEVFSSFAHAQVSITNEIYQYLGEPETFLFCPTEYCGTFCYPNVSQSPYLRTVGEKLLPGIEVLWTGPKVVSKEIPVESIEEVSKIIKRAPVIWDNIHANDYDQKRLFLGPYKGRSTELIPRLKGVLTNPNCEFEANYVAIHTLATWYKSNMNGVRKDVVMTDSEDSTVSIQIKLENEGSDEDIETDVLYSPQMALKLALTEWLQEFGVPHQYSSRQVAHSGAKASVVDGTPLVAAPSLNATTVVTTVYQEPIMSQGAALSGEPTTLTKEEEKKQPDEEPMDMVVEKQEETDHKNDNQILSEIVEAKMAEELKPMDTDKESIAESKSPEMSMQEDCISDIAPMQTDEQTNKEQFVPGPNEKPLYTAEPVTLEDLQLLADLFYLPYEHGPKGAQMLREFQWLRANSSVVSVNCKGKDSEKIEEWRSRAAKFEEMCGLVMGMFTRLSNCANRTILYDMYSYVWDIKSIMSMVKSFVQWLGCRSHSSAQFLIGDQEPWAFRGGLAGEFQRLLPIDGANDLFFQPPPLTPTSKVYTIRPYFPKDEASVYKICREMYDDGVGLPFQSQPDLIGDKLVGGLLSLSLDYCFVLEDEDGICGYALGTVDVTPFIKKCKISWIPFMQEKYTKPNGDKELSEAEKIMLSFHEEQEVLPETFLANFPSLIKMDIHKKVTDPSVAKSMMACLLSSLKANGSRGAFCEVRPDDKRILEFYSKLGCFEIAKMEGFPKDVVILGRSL
# Protocol description: Human O-GlcNAcase enzyme inhibition assay;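 further: reactions contained 20 nM His-tagged hOGA enzyme with 10 µM FL-GlcNAc substrate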
# Type: biochemical
# Measurement conditions: OGA enzyme inhibition assay; FL-GlcNAc substrate, pH 6.5; activity classes defined in μM; read-out: OGA IC50
Listed here are compounds together with their documented IC50.
Endpoint label: IC50

> print(dat)
                                   compound        observed
1  CC(c1ccc2c(c1)OCC2)N1CCC(n2cc(S(C)(=O)=O)cn2)CC1 (racemic)     0.2 to 1 µM
2  CC(C)C(O)c1cnc(N2CCN(C(C)c3ccc4nccnc4c3)CC2)nc1 (racemic)  0.05 to 0.2 µM
3  Cc1nnc(N2CCN(C(C)c3ccc4nccnc4c3)CC2)s1 (racemic)     0.2 to 1 µM
4  CC(c1ccc2nccnc2c1)N1CCN(c2ncc3c(n2)CCN(C)C3)CC1 (racemic)       < 0.05 µM

Origin of the recorded values: patent US10556902B2
